Study system: human SCF248 (stem cell factor 248 isoform) expressed on mouse SI/SI4 cells (human), P21583
Sequence (P21583 26-273): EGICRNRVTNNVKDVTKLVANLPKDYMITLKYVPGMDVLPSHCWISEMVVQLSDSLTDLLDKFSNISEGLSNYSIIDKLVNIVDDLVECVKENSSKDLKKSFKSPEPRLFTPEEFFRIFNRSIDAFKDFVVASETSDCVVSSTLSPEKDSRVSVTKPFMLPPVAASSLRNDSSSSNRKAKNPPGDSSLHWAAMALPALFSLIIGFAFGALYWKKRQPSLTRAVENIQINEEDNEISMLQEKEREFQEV
Method: cell-based or functional assay
Label key: 1 means TGFβ Expression as Percentage of Positive Control under 70%; -1 means TGFβ Expression as Percentage of Positive Control of 70% or more.

[
  {
    "Binder": "B104P mutant expressed as full length IgG4 antibody (antibody, V domains shown, Full length IgG4) VH: QVQLVQSGAELKKPGSSVKISCKSSGYAFSSQWMNWVKQRPGQGLEWIGQIYPDDGDTHYNDKFKGKATLTADKSTSTAYMELSSLTSEDSAVYFCSSSNWVGSYWGQGTLVTVSS VL: DVVMTQSPLSLPVTLGQPASISCKSSQSLLEADGNTYLNWLQQRPGQSPRRLIYLVDRLDSGVPDRFSGSGSGTDFTLKISRVEAEDVGVYYCWQGTDLPQTFGGGTKVEIK",
    "Assigned label": 1
  },
  {
    "Binder": "A84P mutant expressed as full length IgG4 antibody (antibody, V domains shown, Full length IgG4) VH: QVQLVQSGAELKKPGSSVKISCKSSGYAFSSQWMNWVKQRPGQGLEWIGQIYPEDGDTHMNGKFKGKATLTADKSTSTAYMELSSLTSEDSAVYFCSSSNWVGSYWGQGTLVTVSS VL: DVVMTQSPLSLPVTLGQPASISCKSSQSLLEEDGNTYLNWLQQRPGQSPRRLIYLVDRLDIGVPDRFSGSGSGTDFTLKISRVEAEDVGVYYCWQGTDLPQTFGGGTKVEIK",
    "Assigned label": 1
  },
  {
    "Binder": "A64P mutant expressed as full length IgG4 antibody (antibody, V domains shown, Full length IgG4) VH: QVQLVQSGAELKKPGSSVKISCKSSGYAFSSNWMNWVKQRPGQGLEWIGQIYPEDGDTHYNGKFKGKATLTADKSTSTAYMELSSLTSEDSAVYFCSSSNWVGSYWGQGTLVTVSS VL: DVVMTQSPLSLPVTLGQPASISCKSSQSLLEEDGNTYLNWLQQRPGQSPRRLIYLVNRLDDGVPDRFSGSGSGTDFTLKISRVEAEDVGVYYCWQGTDLPQTFGGGTKVEIK",
    "Assigned label": 1
  },
  {
    "Binder": "B114P mutant expressed as full length IgG4 antibody (antibody, V domains shown, Full length IgG4) VH: QVQLVQSGAELKKPGSSVKISCKSSGYAFSSQWMNWVKQRPGQGLEWIGQIYPEDGDTHMNGKFKGKATLTADKSTSTAYMELSSLTSEDSAVYFCSSSNWDGSYWGQGTLVTVSS VL: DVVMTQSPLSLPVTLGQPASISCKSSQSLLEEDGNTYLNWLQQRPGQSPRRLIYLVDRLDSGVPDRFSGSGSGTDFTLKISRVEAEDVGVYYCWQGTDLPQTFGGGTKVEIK",
    "Assigned label": 1
  },
  {
    "Binder": "H83P mutant expressed as full length IgG4 antibody (antibody, V domains shown, Full length IgG4) VH: QVQLVQSGAELKKPGSSVKISCKSSGYAFSSQWMNWVKQRPGQGLEWIGQIYPGDGDIHYNDKFKGKATLTADKSTSTAYMELSSLTSEDSAVYFCSSSNWVGSYWGQGTLVTVSS VL: DVVMTQSPLSLPVTLGQPASISCKSSQSLLESDGNTYLNWLQQRPGQSPRRLIYLVDRLDSGVPDRFSGSGSGTDFTLKISRVEAEDVGVYYCWQGTDLPQTFGGGTKVEIK",
    "Assigned label": -1
  },
  {
    "Binder": "H74P mutant expressed as full length IgG4 antibody (antibody, V domains shown, Full length IgG4) VH: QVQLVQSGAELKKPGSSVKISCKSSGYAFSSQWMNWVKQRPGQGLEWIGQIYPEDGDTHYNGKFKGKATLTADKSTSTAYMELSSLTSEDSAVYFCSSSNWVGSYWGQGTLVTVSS VL: DVVMTQSPLSLPVTLGQPASISCKSSQSLLEEDGNTYLNWLQQRPGQSPRRLIYLVDRLDLGVPDRFSGSGSGTDFTLKISRVEAEDVGVYYCWQGSHLPQTFGGGTKVEIK",
    "Assigned label": 1
  },
  {
    "Binder": "5H10 VK3/VH1 humanized antibody of Table 1 (antibody, V domains shown) VH: QVQLVQSGAELKKPGSSVKISCKSSGYAFSSYWMNWVKQRPGQGLEWIGQIYPGDGDTHYNGKFKGKATLTADKSTSTAYMELSSLTSEDSAVYFCSSSNWVGSYWGQGTLVTVSS VL: DVVMTQSPLSLPVTLGQPASISCKSSQSLLESDGKTYLNWLQQRPGQSPRRLIYLVSRLDSGVPDRFSGSGSGTDFTLKISRVEAEDVGVYYCWQGTHLPQTFGGGTKVEIK",
    "Assigned label": 1
  },
  {
    "Binder": "F54P mutant expressed as full length IgG4 antibody (antibody, V domains shown, Full length IgG4) VH: QVQLVQSGAELKKPGSSVKISCKSSGYAFSSQWMNWVKQRPGQGLEWIGQIYPEDGDTHMNGKFKTKATLTADKSTSTAYMELSSLTSEDSAVYFCSSSNWVGSYWGQGTLVTVSS VL: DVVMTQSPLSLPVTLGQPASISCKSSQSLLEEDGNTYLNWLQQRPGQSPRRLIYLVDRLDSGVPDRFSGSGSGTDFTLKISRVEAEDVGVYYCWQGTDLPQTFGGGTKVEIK",
    "Assigned label": -1
  },
  {
    "Binder": "B124P mutant expressed as full length IgG4 antibody (antibody, V domains shown, Full length IgG4) VH: QVQLVQSGAELKKPGSSVKISCKSSGYAFSSNWMNWVKQRPGQGLEWIGQIYPEDGDTHYNDKFKGKATLTADKSTSTAYMELSSLTSEDSAVYFCSSSNWVGSYWGQGTLVTVSS VL: DVVMTQSPLSLPVTLGQPASISCKSSQSLLEQDGNTYLNWLQQRPGQSPRRLIYLVDRLDSGVPDRFSGSGSGTDFTLKISRVEAEDVGVYYCWQGTDLPQTFGGGTKVEIK",
    "Assigned label": 1
  }
]
